- Assayed System: MDM2 (Homo sapiens)
- Sequence (Q00987 whole entry): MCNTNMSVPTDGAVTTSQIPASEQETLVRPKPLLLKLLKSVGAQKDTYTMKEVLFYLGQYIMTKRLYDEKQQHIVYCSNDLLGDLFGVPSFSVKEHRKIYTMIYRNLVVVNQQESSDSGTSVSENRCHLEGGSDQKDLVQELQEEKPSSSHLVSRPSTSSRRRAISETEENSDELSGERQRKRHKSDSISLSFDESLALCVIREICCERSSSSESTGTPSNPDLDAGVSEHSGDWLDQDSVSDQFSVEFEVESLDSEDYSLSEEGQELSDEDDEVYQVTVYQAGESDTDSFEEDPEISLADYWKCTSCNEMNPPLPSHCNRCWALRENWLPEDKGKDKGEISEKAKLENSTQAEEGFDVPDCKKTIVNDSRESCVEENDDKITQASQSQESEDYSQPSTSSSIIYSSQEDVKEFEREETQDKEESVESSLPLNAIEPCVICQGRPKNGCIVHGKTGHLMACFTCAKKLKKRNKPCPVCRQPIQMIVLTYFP
- Experiment Summary: MDM2 binding screen: displacement of fluorescent p53 peptide probe FP53 (fluorescence polarization)
- Run Conditions: Acid 25; replicate; crude macrocycle reactions
Numbered stars: 1 amine (or outer) side, 2 acyl side, 3 side chain; on linkers, the order of the positions; unused ones are H or OH. Bridge positions count the residues as written; N and C are the ends. Square brackets hold non-standard residues; d marks the D form. Peptide text beside a SMILES is read from it. * marks the point of attachment. Benzoyl(4-Cl) = O=C(c1ccc(Cl)cc1)*; Cysteamide = C(CS[*:3])N[*:1]; Dap = NC[CH](N)C(=O)O; Mpa = O=C(O)CCS
// condition not met strictly below 0.1 in fraction fluorescent probe displaced, Replicate; condition met otherwise

Below are worked cases with known answers.
>>> label_class("O=C(NCC1NC(=O)C2CCCN2C(=O)CCSSCCNC(=O)C(Cc2c[nH]c3ccccc23)NC1=O)c1ccc(Cl)cc1 (stereo not drawn) [X B1 D3 W Acid 25] ([Mpa]P[Dap](Benzoyl(4-Cl))W-Cysteamide; disulfide 1-C; configuration not given here)")
"condition met"
>>> label_class("O=C1NC(Cc2c[nH]c3ccccc23)C(=O)NCCSSCCC(=O)N2CCN(C(=O)c3ccc(Cl)cc3)CC2C(=O)NCc2cccc1c2 (stereo not drawn) [X D7 B5 W Acid 25]")
"condition met"
>>> label_class("O=C1CCSSCCNC(=O)C(CNC(=O)c2ccc(Cl)cc2)NC(=O)C2CCCN(C2)C(=O)C(Cc2ccccc2)N1 (stereo not drawn) [X F B4 D3 Acid 25]")
"condition met"

Could you please find out whether O=C1CCSSCCNC(=O)C2CCCN(C2)C(=O)C2(CCN(C(=O)c3ccc(Cl)cc3)CC2)NC(=O)C(Cc2c[nH]c3ccccc23)N1 (stereo not drawn) [X W D6 B4 Acid 25] has fraction fluorescent probe displaced, Replicate that meets 0.1 or exceeds it? condition met

Does O=C(NC1CC2C(=O)NC(Cc3c[nH]c4ccccc34)C(=O)N3CCCC(C3)C(=O)NCCSSCCC(=O)N2C1)c1ccc(Cl)cc1 (stereo not drawn) [X D5 W B4 Acid 25] have a reported fraction fluorescent probe displaced, Replicate of at least 0.1? condition met

Can O=C1CCSSCCNC(=O)[C@H](CNC(=O)c2ccc(Cl)cc2)NC(=O)[C@H](Cc2c[nH]c3ccccc23)NC(=O)c2cccc(c2)CN1 [X B5 W D3 Acid 25] be said to have fraction fluorescent probe displaced, Replicate at or above 0.1? condition met

For this compound, is measured fraction fluorescent probe displaced, Replicate 0.1 or higher? O=C1CCSSCCNC(=O)C2CCCN(C2)C(=O)C2CN(C(=O)c3ccc(Cl)cc3)CCN2C(=O)C(Cc2c[nH]c3ccccc23)N1 (stereo not drawn) [X W D7 B4 Acid 25] condition not met

Record O=C(NCC1NC(=O)C(Cc2c[nH]c3ccccc23)NC(=O)C2CCCN(C2)C(=O)CCSSCCNC1=O)c1ccc(Cl)cc1 (stereo not drawn) [X B4 W D3 Acid 25] ; criterion: fraction fluorescent probe displaced, Replicate no lower than 0.1. Met? condition met

API: above_or_equal(metric=fraction fluorescent probe displaced, Replicate, cutoff=0.1) for item O=C1CCSSCCNC(=O)[C@H](Cc2ccccc2)NC(=O)C2(CCN(C(=O)c3ccc(Cl)cc3)CC2)NC(=O)c2cccc(c2)CN1 [X B5 D6 F Acid 25] condition not met

Textbook exercise: given the entry O=C1CCSSCCNC(=O)[C@H](Cc2ccccc2)NC(=O)[C@H](CNC(=O)c2ccc(Cl)cc2)NC(=O)CCN1 [X B2 D3 F Acid 25] , state whether its fraction fluorescent probe displaced, Replicate is greater than or equal to 0.1. condition not met

fraction fluorescent probe displaced, Replicate >= 0.1 for O=C1CCSSCCNC(=O)[C@H]2CCCN(C2)C(=O)[C@H](Cc2c[nH]c3ccccc23)NC(=O)C2(CCN(C(=O)c3ccc(Cl)cc3)CC2)N1 [X D6 W B4 Acid 25] ? condition met

Sourced from paper PMC9250534
